# Test Details: chemical genetic growth profiling, strain panel (AID 1159580);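 also: tested at 20 µM; growth read once vehicle control cultures reached saturation at 30 °C; 1 = growth at the plate median or of vehicle wells; lower values mean less growth of the strain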
# Condition Details: S. cerevisiae deletion strains, growth OD, locus YER111C, strain swi4, active compounds read low
Out of some 5,500 compounds screened, about 2,000 (36%) were called active. Inconclusive results (about 18%) are left out. The list shows a part of the results.
Recorded Metric: normalized growth
Please reply with the number alone, leaving off any unit.

Which normalized growth is listed for O=C(O)c1cc(O)c(O)c(O)c1 ?
1.02

====

Each entry below carries its reported normalized growth.
# Test Details: chemical genetic growth profiling, strain panel (AID 1159580);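 also: tested at 20 µM; growth read once vehicle control cultures reached saturation at 30 °C; 1 = growth at the plate median or of vehicle wells; lower values mean less growth of the strain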
# Condition Details: S. cerevisiae deletion strains, growth OD, locus YLR058C, strain SHM2, active compounds read low
The whole screen tested about 5,500 compounds, of which about 2,000 (36%) were called active. Not shown: some 18% with an inconclusive outcome. Some of the results follow.
Please reply with the number alone, leaving off any unit.

Compound	normalized growth
COc1cc(C(=O)O)c(O)c2c1OCO2	1.01

Which normalized growth is listed for CC(=O)OC/C=C(C)/C=C/C=C(C)/C=C/C1=C(C)CCCC1(C)C ?
1.01

Record: COc1ccccc1-c1cc(=O)c2cccc(OC)c2o1
0.911

Record: O=C1OCCN1/N=C\c1ccc([N+](=O)[O-])o1
0.967

Record: CC1=C(/C=C/C(C)=C/C=C/C(C)=C/CO)C(C)(C)CCC1
0.976

Record: COS(C)(=O)=O
1.01

Record: CS(=O)(=O)OCCCCOS(C)(=O)=O
0.969
